The values you see were collected from PubChem BioAssay (NCI).

tested on: SF-539 CNS; experiment: NCI-60 one-dose screen, 48 h (100 = growth as untreated, 0 = no growth, -100 = all killed); conditions: 10 µM
This is part of a sample that, as a whole, favours compounds with a hit. Of some 83,000 tested, about 20% had one in any assay.
Here, each record is paired with measured growth data.
Numeric only. Scale: %

>  <molecule>
CC1(C)CC[C@]2(C(=O)NCCCNCCCCNCCCN)CC[C@]3(C)C(=CC[C@@H]4[C@@]5(C)Cc6c([nH]c7ccccc67)C(C)(C)[C@@H]5CC[C@]43C)[C@H]2C1

>  <observed value>
90.7

$$$$

Look up growth: CS(=O)(=O)Nc1ccc(-c2ccc3c(c2)ncn3-c2ccc(NC(=O)Nc3ccc(Cl)c(C(F)(F)F)c3)cc2)cc1
-88.8

Look up growth: O=c1oc2ccc(-c3ccc(F)cc3F)cc2c(=O)n1-c1ccc(F)c(Cl)c1
-5.14

Look up growth: O=C(NO)c1ccc(-c2nc3ccc4[nH]ncc4c3c3c2CCCC3)cc1
-97.4

Look up growth: O=c1oc2ccccc2cc1-c1csc(N=Nc2c(O)[nH]c3ccc(Br)cc23)n1
35.6

Look up growth: COc1ccccc1[C@H]1C(C(=O)c2ccc(Cl)cc2)C2(N[C@@H]1c1ccccc1)C(=O)Nc1ccc(Cl)cc12 (stereo partly drawn)
-16.6

Look up growth: COc1cc(C2CC(c3ccccc3)=Nc3c(N)nc(N)nc3N2)ccc1Oc1nc(Nc2ccc(F)cc2)nc(N(C)C)n1 (stereo not drawn)
63

====

test system: M14 melanoma; assay: NCI-60 one-dose screen, 48 h (100 = growth as untreated, 0 = no growth, -100 = all killed); conditions: 10 µM
The panel holds about 83,000 compounds, 20% with a hit somewhere; the sample as a whole holds those more often. Active and inactive are the calls of the source. The calls were made as follows: active = growth percent below 10; inactive = the rest.
recorded metric: growth

>  <sample smiles>
C=C(C)[C@@H]1CC[C@]2(C)[C@H](CC=C3[C@@H]4CC(C)(C)CC[C@]4(C(=O)N4CCOCC4)CC[C@]32C)[C@@]1(C)CCCN

>  <observed value>
-80% (active)

$$$$
>  <sample smiles>
O=C1Nc2cc(-c3ccc(NC(=O)c4cccc([N+](=O)[O-])c4)cc3)ccc2/C1=C/c1ccc[nH]1

>  <observed value>
102% (inactive)

$$$$
>  <sample smiles>
Cc1ccc(/C(CSc2nnc(-c3c[nH]c4ccccc34)n2-c2ccccc2)=N/O)cc1

>  <observed value>
-64.4% (active)

$$$$
>  <sample smiles>
Cc1ccc2nc(COc3ccc(C(=O)NNC(=S)NCCc4ccccc4)cc3)[nH]c2c1

>  <observed value>
106% (inactive)

$$$$
>  <sample smiles>
COc1cnc2c(c1)C(=O)c1c-2n(CCCNCCO)c(=O)c2cc(OC)c(OC)cc12

>  <observed value>
23.1% (inactive)

$$$$
>  <sample smiles>
N#Cc1c(NC(=O)c2ccc(C(F)(F)F)cc2)sc2c1CCC(O)=C2

>  <observed value>
13% (inactive)

$$$$
>  <sample smiles>
CCCS(=O)(=O)c1oc(-c2ccc(F)cc2)nc1S(=O)(=O)c1ccc(F)cc1

>  <observed value>
-37.5% (active)

$$$$
>  <sample smiles>
Cc1ccc(CSc2nc(-c3ccc(F)cc3)c(C#N)c(=O)[nH]2)cc1

>  <observed value>
116% (inactive)

$$$$
>  <sample smiles>
O=C(CNc1nc(-c2ccccc2)cs1)Nc1ccc([N+](=O)[O-])cc1Cl

>  <observed value>
34.4% (inactive)

$$$$

Lab note: next compound to report on.
Look up growth: COc1ccccc1NCc1ccc(CO)n1-c1ccc(C)cc1
101% (inactive)

====

test system: SF-268 CNS; experiment: NCI-60 one-dose screen, 48 h; settings: 10 µM
About 83,000 compounds went through this panel and 20% of them were active in at least one assay; those are over-represented in the sample as a whole. Calls of active or inactive are those of the source. Rule for the calls: active = growth percent below 10; inactive = the rest.
In this exercise, the only acceptable responses are active, inactive

>  <sample smiles>
COc1ccc(-c2nc(S(=O)(=O)c3ccccc3)c(S(C)(=O)=O)o2)cc1

>  <measurement target>
SF-268 CNS

>  <class assignment>
inactive

$$$$
>  <sample smiles>
COc1cc(/C=C/C(=O)c2cc(OC)c(OC)c(OC)c2)ccc1Oc1nc(Nc2ccc(F)cc2)nc(N(C)C)n1

>  <measurement target>
SF-268 CNS

>  <class assignment>
inactive

$$$$
>  <sample smiles>
COc1ccc(-c2nc(S(=O)(=O)c3ccc(C)cc3)c(S(C)(=O)=O)o2)cc1

>  <measurement target>
SF-268 CNS

>  <class assignment>
active

$$$$
>  <sample smiles>
Cc1ccc(C(C)C)cc1NC(=O)c1ccccc1O

>  <measurement target>
SF-268 CNS

>  <class assignment>
inactive

$$$$
>  <sample smiles>
CCOc1ccc2ncc(C#Cc3cncc(C(=O)Nc4ccc(CN5CCN(C)CC5)c(C(F)(F)F)c4)c3)n2n1

>  <measurement target>
SF-268 CNS

>  <class assignment>
active

$$$$

State the result this test recorded for O=c1[nH]n(C(=S)N/N=C/c2ccc(F)cc2)c(=O)c2ccccc12 .
inactive

State the result this test recorded for Cc1ccc(-c2nc(Nc3ccc(S(N)(=O)=O)cc3)c3ccccc3n2)cc1 .
inactive

State the result this test recorded for Cc1cccc2cc(-c3cc(-c4ccccc4)nc(=S)[nH]3)c(Cl)nc12 .
inactive

State the result this test recorded for Cc1cc(C)nc(/N=C(\N)Nc2ccc(S(=O)(=O)Nc3nc(C)cc(C)n3)cc2)n1 .
inactive

====

test system: NCI/ADR-RES ovarian; assay: NCI-60 one-dose screen, 48 h; settings: 10 µM
This is part of a sample that, as a whole, favours compounds with a hit. Of some 83,000 tested, about 20% had one in any assay. Active and inactive are the calls of the source. Rule for the calls: active = growth percent below 10; inactive = the rest.
In this exercise, the only acceptable responses are active, inactive

Worked cases, answers included:
>  <molecule>
C=C(C)[C@@H]1CC[C@]2(C)[C@H](CC=C3[C@@H]4CC(C)(C)CC[C@]4(C(=O)N4CCOCC4)CC[C@]32C)[C@@]1(C)CCCN

>  <class assignment>
active

$$$$
>  <molecule>
COc1cc(C2CC(c3ccc(C)cc3)=Nc3c(N)nc(N)nc3N2)ccc1Oc1nc(Nc2ccc(F)cc2)nc(N(C)C)n1 (configuration not stated)

>  <class assignment>
inactive

$$$$

State the result this test recorded for CC1=C2C(=C[C@@](C)(CO)[C@@H]2O)/C(=N\N)[C@](C)(O)C12CC2 .
active

State the result this test recorded for COc1ccc(-c2cc(C(=O)N=Nc3c(O)[nH]c4ccccc34)c3ccccc3n2)cc1 .
active

State the result this test recorded for O=C(NCCCCCCCCCC[P+](c1ccccc1)(c1ccccc1)c1ccccc1)c1ccc(-n2nc(-c3ccccc3O)nc2-c2ccccc2O)cc1 .
inactive

State the result this test recorded for Cc1cc(=O)oc2cc(OCCCCOc3ccc(/C=C/C(=O)Nc4ccccc4[N+](=O)[O-])cc3)ccc12 .
inactive

====

Tested on: SK-MEL-28 melanoma
Assay: NCI-60 one-dose screen, 48 h
Conditions: 10 µM
Method: Growth inhibition of the SK-MEL-28 human tumor cell line is measured as a screen for anti-cancer activity. Cells are grown in 96 well plates and exposed to the test compound for 48 hours. Compounds are tested at a single concentration, which is 10^-5 M for most compounds. The reported endpoint is percent growth (GI% or GIPRCNT), where numbers from 0 - 100% represent growth inhibition, and numbers from -100% - 0 represent cell death. For example, a value of 40 represents 60% growth inhibition. […]
This is part of a sample that, as a whole, favours compounds with a hit. Of some 83,000 tested, about 20% had one in any assay. The source made the active and inactive calls. Rule for the calls: active = growth percent below 10; inactive = the rest.
In this exercise, the only acceptable responses are 1 for active, -1 for inactive

Worked cases, answers included:
>  <compound>
CC(C)C1=C[C@@]23CC[C@@H]4[C@](C)(CCC[C@]4(C)C(=O)NCc4ccccc4)[C@H]2C[C@@H]1[C@H]1C(=O)CCC(=O)[C@H]13

>  <measurement target>
SK-MEL-28 melanoma

>  <class assignment>
-1

$$$$
>  <compound>
COc1ccc(/C=C/C(=O)c2ccc(N3CCN(C)CC3)cc2)c(C(F)(F)F)c1

>  <measurement target>
SK-MEL-28 melanoma

>  <class assignment>
-1

$$$$
>  <compound>
CC(=O)Nc1ccc(-n2cnc3cc(-c4ccc(O)cc4)ccc32)cc1C

>  <measurement target>
SK-MEL-28 melanoma

>  <class assignment>
-1

$$$$

State the result this test recorded for CCCSc1nc(NC2CC2)c(C#N)c(-c2ccc(OC)cc2)n1 .
-1

State the result this test recorded for COc1ccc(/C=C/C(=O)c2ccc(S(=O)(=O)NCCNc3nc(Nc4ccc(F)cc4)nc(N(C)C)n3)cc2)cc1 .
-1

State the result this test recorded for OCCNc1oc(-c2ccccc2)nc1[P+](c1ccccc1)(c1ccccc1)c1ccccc1 .
1

====

Tested on: U251 CNS
Experiment: NCI-60 one-dose screen, 48 h (100 = growth as untreated, 0 = no growth, -100 = all killed)
Settings: 10 µM
Description: Growth inhibition of the U251 human tumor cell line is measured as a screen for anti-cancer activity. Cells are grown in 96 well plates and exposed to the test compound for 48 hours. Compounds are tested at a single concentration, which is 10^-5 M for most compounds. The reported endpoint is percent growth (GI% or GIPRCNT), where numbers from 0 - 100% represent growth inhibition, and numbers from -100% - 0 represent cell death. For example, a value of 40 represents 60% growth inhibition. […]
This is part of a sample that, as a whole, favours compounds with a hit. Of some 83,000 tested, about 20% had one in any assay.
Here, each record is paired with measured growth data.
Numeric only. Scale: %

Sample records with growth:
>  <sample smiles>
Cc1ccc(F)cc1N/C=c1\s/c(=C(\C#N)C(=O)Nc2ccccc2)n(-c2ccccc2)c1=O

>  <measurement target>
U251 CNS

>  <readout unit>
%

>  <observed value>
74.2

$$$$
>  <sample smiles>
CN(C(=O)c1ccc(C(C)(C)C)cc1)c1sc2c(c1C#N)CCC(=O)C2

>  <measurement target>
U251 CNS

>  <readout unit>
%

>  <observed value>
-22.7

$$$$
>  <sample smiles>
CN1CCN(c2ccc(C(=O)/C=C/c3cc(Br)ccc3F)cc2)CC1

>  <measurement target>
U251 CNS

>  <readout unit>
%

>  <observed value>
23.8

$$$$
>  <sample smiles>
[2H]C([2H])([2H])Oc1ccc2ncc(C#Cc3cncc(C(=O)Nc4ccc(CN5CCN(C)CC5)c(C(F)(F)F)c4)c3)n2n1

>  <measurement target>
U251 CNS

>  <readout unit>
%

>  <observed value>
-31.4

$$$$

Look up growth: CC(=O)Nc1ccc(-c2cn(-c3cccc(C(=O)Nc4cccc(OC(F)(F)F)c4)c3)nn2)cn1
73.6

Look up growth: Cc1ccc(-c2cc(-c3cc4ccccc4nc3Cl)[nH]c(=O)n2)cc1
-23.5

Look up growth: O=C(Nc1ccncc1)c1ccc(-n2c(=O)[nH]c3ccccc3c2=O)cc1
99.7

Look up growth: C/C(=C\c1ccc(O)cc1O)c1ccc2ccc(O)cc2[o+]1
23.5

Look up growth: Cc1ccn2c(C(=O)c3ccc(Br)cc3)cc(-c3cc(-c4ccc(N(C)C)cc4)c(C#N)c(N)n3)c2c1
19.9
